test system: PPARg:RXRa 270nM:90nM, anti-RXR (NR concentration 270 nM, RXRa partner concentration 90 nM); test: PBM binding z-score (relative to random genomic background probes); higher = stronger binding; sequences stand for … in GC…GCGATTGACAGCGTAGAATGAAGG
Short version: PBM binding z-score at least 2 is T, less is F.

Consider the following illustrative entries.
TCCGCTAGGTCAGTTGGTCAGCTAACGAGCTGCC: F
CCGACTGAGGCATAAGGTTACCATAAGCCAGCCC: F
TTAGCAAGGTGAAGGTCGTTGATCCCTCTGTAGA: T
CAAACTAGGTCAAGGTCAAAGTTGGTTTGTGCCA: T
CATACAGGGTCAGCTAGGCCAAAGTAGGGACGGC: T

Problem: Is PBM binding z-score for `CAAACTAGGTCACTGGAAGGTCAAAGTCCGCATG` at or above 2?
Result: T

Problem: Is PBM binding z-score for `AATACAGGGGCATCGTAGGCCAGAGTACGCACAG` at or above 2?
Result: F

Problem: Is PBM binding z-score for `TCTGTTAGGTCAGTTGGTCAGCTAACGAGCTGCC` at or above 2?
Result: T

Problem: Is PBM binding z-score for `AGTCAACGTTCATCTAGGTAACGTAAGATATGCT` at or above 2?
Result: F

Problem: Is PBM binding z-score for `CGTCCAAGGTCAAGGTCGGTGAAAGAGACTCGAA` at or above 2?
Result: T

Problem: Is PBM binding z-score for `CCGACTGGGGCAGAAAGGTTACAATACCATCCGG` at or above 2?
Result: T

Problem: Is PBM binding z-score for `ACAGACAGGTGATGAAGGTCACTCAGGCTATCAT` at or above 2?
Result: F

Problem: Is PBM binding z-score for `AGTCAAAGTTCACTAGGTAACGTGAGATTCAGCT` at or above 2?
Result: T

Problem: Is PBM binding z-score for `CCTAGCAGGCCAGGGTCACTCATGCATTTCGCTT` at or above 2?
Result: F

Problem: Is PBM binding z-score for `TCATATAGGTATACAGGTGAAAGTCCGTAAGTTA` at or above 2?
Result: T

Problem: Is PBM binding z-score for `TCGAGTAGGTTACCAATGGGGCATTCAACTTTCT` at or above 2?
Result: F

Problem: Is PBM binding z-score for `GCTAGTTGGTCAGTAAAAGGTCATACACCGGTCG` at or above 2?
Result: T

Problem: Is PBM binding z-score for `CCTTACGGGTCACTAGGTTATAGCACGACGAGCG` at or above 2?
Result: T

Problem: Is PBM binding z-score for `CGTTAAAGTTCAAGGTAACGTAACAGAAAGCAGC` at or above 2?
Result: T

Problem: Is PBM binding z-score for `GCGAGTTGGTCAGTAAAAGGTCACACACCGGTCG` at or above 2?
Result: T

Problem: Is PBM binding z-score for `CCGACTGGGGCAGAAATGTTACCATACCATCCGG` at or above 2?
Result: F

Problem: Is PBM binding z-score for `CGAACGAGGGCATGAGTCGATAGCAAATGCCGAT` at or above 2?
Result: T

Problem: Is PBM binding z-score for `TGAATGAGGGTATAAGATCAGGGAACGTTGCAAA` at or above 2?
Result: F
